method: SK-BR-3 cell growth inhibitors, pilot screen, 24 h, human (AID 572);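 further: compound exposure lasted between 18 and 24 h rather than exactly 24 h; 100% = carrier-treated control wells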
assay_context: SK-BR-3 viability, CellTiter-Glo luminescence, at 10 µM, stronger effect = lower value
Exercise: state measured viability for each of the compounds provided.
A number alone suffices; assume %.

What measured viability goes with CC(=O)N1C(=O)C2(Nc3ccccc3N2)c2ccccc21 ?
110

What measured viability goes with CC(C)CCNC(=O)CCNS(=O)(=O)c1ccc(Cl)cc1 ?
110

What measured viability goes with CCOC(=O)CSc1nnc(CCc2nc3ccccc3[nH]2)n1C ?
118

What measured viability goes with CC1(C)O[C@@H]2C[C@H]3[C@@H]4C[C@H](F)C5=CC(=O)C=C[C@]5(C)[C@@]4(F)[C@@H](O)C[C@]3(C)[C@]2(C(=O)CO)O1 ?
94

What measured viability goes with CC1CCN(C(=O)CN2C(=O)C(C)(C)Oc3ccc(C(=O)NC4CCCC4)cc32)CC1 ?
82

What measured viability goes with O=C(c1ccco1)N1CCN(c2ccc(Cl)cc2)CC1 ?
86

What measured viability goes with COc1ccc(C(C)=O)c(OC(=O)c2ccc(OC)c(OC)c2)c1 ?
104

What measured viability goes with Cc1onc(-c2ccccc2)c1C(=O)Nc1ccc(S(=O)(=O)N2CCCCC2)cc1 ?
95.5

What measured viability goes with CCOc1ccc2[nH]c(=O)c(CN(CCOC)C(=O)N3CCOCC3)cc2c1 ?
97

What measured viability goes with Cc1cccc(CN2CCN(C(c3ccccc3)c3ccc(Cl)cc3)CC2)c1 (stereo not given) ?
83

----------
method: OD615 S. cerevisiae growth inhibition, permissive medium, pilot counter-assay, permissive growth control for S. cerevisiae lifespan shortening project (AID 705)
assay_context: OD615, 24 h, at 10 µM, stronger effect = higher value
measure_name: growth inhibition (%)
A number alone suffices; assume %.

What measured growth inhibition goes with OC(COCc1cccs1)CN1CCN(c2ccccn2)CC1 (configuration not stated) ?
-19.5

What measured growth inhibition goes with Cc1cccc(NC(=O)C2CCCN2S(=O)(=O)c2cccc3cccnc23)c1 (configuration not stated) ?
-13

What measured growth inhibition goes with OCCNc1nc(Nc2ccccc2)nc(Nc2ccccc2)n1 ?
14

What measured growth inhibition goes with c1coc(CNc2nc3sc4c(c3c3ncnn23)CCCC4)c1 ?
-19.5

What measured growth inhibition goes with CC1CCCC(C)N1C(=O)Cn1c(=O)sc2ccccc21 (configuration not stated) ?
-4.41

What measured growth inhibition goes with CCCn1cc(S(=O)(=O)CC(=O)NC2CCCCC2)c2ccccc21 ?
-1.69

What measured growth inhibition goes with CN(C)C(=O)c1nnc(Cc2ccc(Cl)cc2)o1 ?
-8.24

What measured growth inhibition goes with CCN(CC)CCCNC(=O)c1cc(-c2ccc(O)cc2)on1 ?
-14.6

What measured growth inhibition goes with OCCN1CCN(Cc2cc(Br)cc(Br)c2O)CC1 ?
-18.3

What measured growth inhibition goes with COc1ccc(CCNC(=O)c2oc3ccc(S(=O)(=O)N4CCOCC4)cc3c2C)cc1OC ?
-0.835

What measured growth inhibition goes with CCC(CC)C(=O)Nc1cc(C)c2c(=O)oc3ccccc3c2n1 ?
-17.2

What measured growth inhibition goes with CCOc1cc(C2NC(=O)NC(C)=C2C(=O)OC(C)CC)cc(Br)c1O (configuration not stated) ?
-4.09

What measured growth inhibition goes with CN(Cc1ccccc1)c1nnc(N)s1 ?
0.13

What measured growth inhibition goes with CCOC(=O)COc1cc2c(C(=O)OCC)c(C)oc2cc1Br ?
-10

What measured growth inhibition goes with Cc1ccc2c(c1)c(C)c(C)n2CC(O)Cn1nc(C)cc1C (configuration not stated) ?
-13

What measured growth inhibition goes with O=C(Nc1ccc2nc(-c3cccnc3)[nH]c2c1)c1ccco1 ?
-2

What measured growth inhibition goes with Cc1ccccc1C(=O)Nc1nnc(-c2ccc(F)cc2)o1 ?
-3.21

What measured growth inhibition goes with O=C1c2ccccc2C(Nc2ccc3c(c2)OCO3)N1Cc1ccco1 (configuration not stated) ?
5.28

What measured growth inhibition goes with O=C(NCc1cccs1)C1CCCN(S(=O)(=O)c2cccc3cccnc23)C1 (configuration not stated) ?
8.41

What measured growth inhibition goes with COc1ccc(CCNC(=O)c2ccco2)cc1 ?
13.4

What measured growth inhibition goes with Cc1ccc(S(=O)(=O)c2cccc(S(=O)(=O)N3CCCC3)c2)cc1S(=O)(=O)N1CCCC1 ?
-2.43

What measured growth inhibition goes with Cc1c(-c2ccco2)[n+](=O)c2c(n1[O-])CCCCC2 ?
-4.97

What measured growth inhibition goes with CC1CCCCN1CCn1cnc2c([nH]c3ccccc32)c1=O (configuration not stated) ?
-2.21

What measured growth inhibition goes with Nc1cccc(C(=O)Nc2ccc(N)cc2Cl)c1 ?
-18.5

What measured growth inhibition goes with O=C(c1cc(C2CC2)on1)N1CCOCC1 ?
-4.11

What measured growth inhibition goes with O=C(NCCc1cn2ccsc2n1)c1cccs1 ?
-14.1

What measured growth inhibition goes with CC(C)C(NS(=O)(=O)c1ccc2c3c(cccc13)C(=O)N2)C(=O)O (configuration not stated) ?
-4.62

What measured growth inhibition goes with Cc1cc(C)cc(-c2nc(-c3ccncc3)no2)c1 ?
0.275

What measured growth inhibition goes with Cc1ccc(S(=O)(=O)NCCCN2CCOCC2)c(C)c1 ?
-5.02

What measured growth inhibition goes with O=C(Nc1ccc(N2CCCCC2)cc1)c1cncc(Br)c1 ?
5.98

What measured growth inhibition goes with CCC(=O)Nc1sc2c(c1C#N)CC(C)(C)NC2(C)C ?
-7.39

What measured growth inhibition goes with COc1ccc(C2N(c3ccc(Cl)cc3)C(=O)C3CCCN32)cc1 (configuration not stated) ?
1.46

What measured growth inhibition goes with COc1ccc(C2C(C(=O)N3CC(C)CC(C)C3)c3ccccc3C(=O)N2C)cc1 (configuration not stated) ?
-10.8

What measured growth inhibition goes with O=C(Nc1ccccc1C1CC1)c1cccs1 ?
-10.4

What measured growth inhibition goes with COc1ccc(C)cc1NC(=O)Cn1cnc2sc(C)c(S(=O)(=O)N3CCOCC3)c2c1=O ?
4.46

What measured growth inhibition goes with Nc1nc2n(n1)C(c1ccco1)CC(c1ccc(F)cc1)N2 (configuration not stated) ?
-0.245

What measured growth inhibition goes with CC(C)CCNC(=O)C1C2C=CC3(CN(Cc4ccccc4Cl)C(=O)C13)O2 (configuration not stated) ?
-8.87

What measured growth inhibition goes with COC(=O)c1ccccc1NC(=O)c1cc(C2CC2)on1 ?
-8.38

What measured growth inhibition goes with CC(=O)c1ccc(OCC(O)COc2ccc(C(C)=O)cc2)cc1 ?
-2.04

What measured growth inhibition goes with CCc1ccc(-c2nc(CSCC(=O)N3CCN(c4ncccn4)CC3)c(C)o2)cc1 ?
-2.9

What measured growth inhibition goes with CN(C)c1ccc(C(=O)Nc2ccc(S(=O)(=O)NC3=NCCCCC3)cc2)cc1 ?
-6.28

What measured growth inhibition goes with Cc1nc2sc(C(c3ccco3)N3CCN(c4ccccc4)CC3)c(O)n2n1 (configuration not stated) ?
-2.19

What measured growth inhibition goes with O=C(Nc1ccccc1O)c1ccccc1O ?
-9.29

What measured growth inhibition goes with CC(=O)Nc1ccccc1NC(=O)C(F)(F)F ?
-14.2

What measured growth inhibition goes with COc1ccc(S(=O)(=O)NCCSc2ccc(C)cc2)cc1OC ?
1.08

What measured growth inhibition goes with COc1ccc(Cn2c(=O)[nH]c3cc(C(=O)N4CCN(Cc5ccccc5)CC4)ccc3c2=O)cc1 ?
1.4

What measured growth inhibition goes with CS(=O)(=O)N(CC(=O)NCc1ccncc1)c1cc(Cl)cc(Cl)c1 ?
-7.62

----------
Exercise: state measured viability for each of the compounds provided.
method: growth inhibitors of H69AR lung tumor, primary screen, human, duplicate replicates (AID 580);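 further: 100% = mean luminescence of untreated wells and 0% = no signal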
assay_context: H69AR lung tumor cells viability, ATP luminescence, 72 h; at 10 µM; stronger effect = lower value
A number alone suffices; assume %.

What measured viability goes with C=CCSC1=C(C#N)C(c2ccccc2OCC)CC(=O)N1 (stereo unspecified) ?
95.3

What measured viability goes with CCOC(=O)CSc1nnc(CCc2nc3ccccc3[nH]2)n1C ?
102

What measured viability goes with CS(=O)(=O)N1CCN(c2ccccc2NC(=O)c2cccs2)CC1 ?
91.3

What measured viability goes with CCS(=O)(=O)N1CCC(C(=O)NC2CCCCCCC2)CC1 ?
97.5

What measured viability goes with Cn1cccc1Cc1nnc(SCC(=O)Nc2ccc(F)cc2F)n1-c1ccc(F)cc1 ?
94.8

What measured viability goes with CC(=O)Nc1ccc(S(=O)(=O)NCc2cn3c(C)csc3n2)cc1 ?
102

----------
Exercise: state measured viability increase for each of the molecules provided.
method: viability gain of MRP-1-high H69AR cells under doxorubicin, pilot screen, MRP-1 activator project, CellTiter-Glo, duplicate (AID 807);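 further: compound pretreatment 18-22 h then 72 h combined with doxorubicin; 0% = doxorubicin alone and 100% = vehicle without doxorubicin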
assay_context: H69AR viability with doxorubicin, CellTiter-Glo luminescence; at 10 µM; stronger effect = higher value
A number alone suffices; assume %.

What measured viability increase goes with O=C(CN(C1CCCCC1)S(=O)(=O)c1ccccc1)N1CCCC1 ?
-2.08

What measured viability increase goes with CC1(C)CC(=O)C2=C(C1)Nc1ccccc1NC2c1ccccn1 (stereo unspecified) ?
-3.1

What measured viability increase goes with Cc1ccc(S(=O)(=O)NCC(=O)N2CCOCC2)cc1 ?
-1.57

What measured viability increase goes with O=C(c1ccccc1)C(Sc1ncn[nH]1)c1ccccc1 (stereo unspecified) ?
5.4

What measured viability increase goes with Cc1ccc(N(CC(=O)NCc2ccco2)S(=O)(=O)c2ccccc2)cc1 ?
-4.6

What measured viability increase goes with Cn1c(=O)c(C(=O)Nc2ncccn2)c(O)c2ccccc21 ?
-3.95

What measured viability increase goes with CCN1C(=S)SC(=O)C1=C1C=C(C)OC(C)=C1 ?
-3.02

What measured viability increase goes with CCOc1ccc(-n2c(Cc3cc(=O)[nH]c(=O)[nH]3)nnc2SCc2cccnc2)cc1 ?
1.08

What measured viability increase goes with CC(=O)Nc1c(C(=O)c2ccc(F)cc2)oc2ccccc12 ?
-3.23

What measured viability increase goes with COc1ccc(N(CC(=O)N2CCN(C)CC2)S(C)(=O)=O)cc1OC ?
-0.37

What measured viability increase goes with Cc1ccc(-c2noc(CSc3nnnn3C3CCCCC3)n2)cc1 ?
-1.39
